- Measured target: Ribosomal protein S6 kinase beta-1 (Homo sapiens);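 further: reported value is the mean inhibition of p70S6K1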
- Assay context: at 0.1 µM
Readout name: inhibition (%)
Respond with the bare value in %.

Examples with answers:
Cc1ccc(O)cc1Nc1ccnc2cc(-c3ccccn3)ccc12; 1.62
O=C(Nc1n[nH]c2cc(-c3ccc(F)cc3)ccc12)C1CC1; 2

Lab note: COC(=O)c1sc(-n2cnc3cc(OC)c(OC)cc32)cc1OCc1ccccc1C(F)(F)F gave inhibition of 2.41

Lab note: CCCN(CCS(C)(=O)=O)Cc1ccc(-c2ccc3ncnc(Nc4ccc(OCc5cccc(F)c5)c(Cl)c4)c3c2)o1 gave inhibition of 1.21

Lab note: CCn1c(-c2nonc2N)nc2c(C#CC(C)(C)O)nc(OC[C@H](N)c3ccccc3)cc21 gave inhibition of 4.66

Lab note: COc1cc(N2CCN(C(C)C)CC2)ccc1Nc1nc(Nc2ccc(F)cc2C(N)=O)c2cc[nH]c2n1 gave inhibition of 1.81

Lab note: CNC(=O)c1cncc(/C=C/c2ccccc2Cl)c1 gave inhibition of 0.27

Lab note: Fc1cccc(COc2ccc(Nc3ncnc4sc(-c5ccco5)cc34)cc2Cl)c1 gave inhibition of 1.01

Lab note: COc1ccc2[nH]c3c4[nH]c5ccc(OC)cc5c4c4c(c3c2c1)C(=O)NC4=O gave inhibition of 45.6

Lab note: CCn1cc(-c2ccnc3[nH]ccc23)c(-c2cccc(NC(=O)Nc3ccc(OCc4ccccc4)cc3)c2)n1 gave inhibition of -0.04

Lab note: NS(=O)(=O)c1ccc(Nc2ncc(-c3ccccc3)o2)cc1 gave inhibition of 2.3

Lab note: COc1ccc(CNC(=O)c2ccc(-c3cc(-c4nnc(C)o4)ccc3C)cc2)cc1 gave inhibition of 1.64

Lab note: Fc1ccc(-c2cc(-c3c[nH]nc3-c3ccccn3)ccn2)cc1 gave inhibition of 0.99

Origin of measurements: ChEMBL document CHEMBL1961873
